# Test: soluble on expression in E. coli; label from the status in PepcDB or PDB records
Observable: soluble on expression in E. coli

Known results for sequences:
>>> endpoint_result("DLKYILETKLEEERNHLEELLEKVEEDYEGINYDEVLEALKLFKDNYELPKSKIKRKIRIFLIKENILFLNPQKGTLKPQSYLVWNAIKRML")
"soluble"
>>> endpoint_result("AKIGLFYGTQTGVTQTIAESIQQEFGGESIVDLNDIANADASDLNAYDYLIIGCPTWGVGELQSDWEGIYDDLDSVNFQGKKVAYFGAGDQVGYSDNFQDAMGILEEKISSLGSQTVGYWPIEGYDFNESKAVRNNQFVGLAIDEDNQPDLTKNRIKTWVSQLKSEFGL")
"soluble"
>>> endpoint_result("SLNAAAADRNKDPILSVLKSRVASNRRLFALEISSGTGQHVVHFAKAFPNITWQPSEVETQSLSSIEAYRQYHRLQNVQPPIYLDVSQSWQTWGGFPAESCDLIININMMHISPLACTTGLFHGVGQILKPQGLLLTYGPYAFNGSIVPQSNFDFDQSLRYRNPEWGLRDASFLTTLGQENGLRLEEIVDMPANNKCLLFRKDSVV")
"soluble"
>>> endpoint_result("MLEDYAISLEEVNFNDFIVVDVRELDEYEELHLPNATLISVNDQEKLADFLSQHKDKKVLLHCRAGRRALDAAKSMHELGYTPYYLEGNVYDFEKYGFRMVYDDTCDKKN")
"soluble"
>>> endpoint_result("MAHHHHHHMATISRRDGRTAREMRGKELRTSDLSQFDGSAWYSQGLTAVTVAINGPTAARQENYRRCTTCIHVNRAARIPQEGGTGRLIMMERRERERCEDGELKQFLTSLVEAIVCLDRFPRCVLEAHVTVLMDDGALFAVASNAIMCALLDAGVPCRSTIAAVSLIMCNPEASGNEGEPEIFLDPTAVEESTDEVRSYASATFVLTNTGGEAVLASRVQARPRSSAYSRPITPKDLSRMFALAAKAAETLFVFFRNCSMALE")
"not soluble"

Exercise: Report soluble on expression in E. coli for MKSQFNQKLEDKFQRNAEQVVSLVKERMQLYENALWSSVAYIDADETDITHTKWLAYSKSLKIDLTYPGINGIGIIYNIQADQLDDYIEKQRVLRPNYAIHPSHNESEYWPITYVEPAAPNKKAIGLDMAFETNRYSSIKKARDTGVAQLTGPITLVQDAKKTPGFLFYTPFYKNGTKPESTEARRDAIDGVTYAPFIMKNLMQGTLAEKNRHVSIQIRDAGDLLFDDHDDESVLDADANPLFTKEQDISLYGRTWSFTIQSNLDFRDESAANQLEHHHHHH please.
Solution: not soluble

Exercise: Report soluble on expression in E. coli for NCCVKGNSIYPQKTSTKQTGLMLDIARHFYSPEVIKSFIDTISLSGGNFLHLHFSDHENYAIESHLLNQRAENAVQGKDGIYINPYTGKPFLSYRQLDDIKAYAKAKGIELIPELDSPNHMTAIFKLVQKDRGVKYLQGLKSRQVDDEIDITNADSITFMQSLMSEVIDIFGDTSQHFHIGGDEFGYSVESNHEFITYANKLSYFLEKKGLKTRMWNDGLIKNTFEQINPNIEITYWSYDGDTQDKNEAAERRDMRVSLPELLAKGFTVLNYNSYYLYIVPKASPTFSQDAAFAAKDVIKNWDLGVWDGRNTKNRVQNTHEIAGAALSIWGEDAKALKDETIQKNTKSLLEAVIHKTNGDEHHHHHH please.
Solution: soluble

Exercise: Report soluble on expression in E. coli for MGHHHHHHSHMAAAIASSLIRQKRQAREREKSNACKCVSSPSKGKTSCDKNKLNVFSRVKLFGSKKRRRRRPEPQLKGIVTKLYSRQGYHLQLQADGTIDGTKDEDSTYTLFNLIPVGLRVVAIQGVQTKLYLAMNSEGYLYTSELFTPECKFKESVFENYYVTYSSMIYRQQQSGRGWYLGLNKEGEIMKGNHVKKNKPAAHFLPKPLKVAMYKEPSLHDLTEFSRSGSGTPTKSRSVSGVLNGGKSMSHNEST please.
Solution: soluble
